Data origin: the supplement of paper PMC10567573

B1: TRIM43 (parent)
chain: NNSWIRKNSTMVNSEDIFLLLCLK

Variants of: B1
test protocol: protein stability index of a GFP-peptide fusion (GPS, HEK-293T) (PSI 1-6); higher = more stable;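 note: lentivirally expressed fusions sorted by FACS into six bins by GFP to DsRed ratio, PSI derived from sequencing read proportions per bin multiplied by bin number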
assay setup: c terminus: a fixed tail appended
quantity kind: protein stability index
// no unit string in output, number only

Data request: Quickly give me recorded protein stability index for `L19V`
Data returned: 3.1

Data request: Quickly give me recorded protein stability index for `I5V`
Data returned: 2.27

Data request: Quickly give me recorded protein stability index for `N8I`
Data returned: 2.73

Data request: Quickly give me recorded protein stability index for `D16M`
Data returned: 2.45

Data request: Quickly give me recorded protein stability index for `M11Y`
Data returned: 2.99

Data request: Quickly give me recorded protein stability index for `V12P`
Data returned: 2.79

Data request: Quickly give me recorded protein stability index for `L20C`
Data returned: 2.25

Data request: Quickly give me recorded protein stability index for `M11P`
Data returned: 2.15

Data request: Quickly give me recorded protein stability index for `V12S`
Data returned: 4.3

Data request: Quickly give me recorded protein stability index for `T10D`
Data returned: 1.98

Data request: Quickly give me recorded protein stability index for `L20F`
Data returned: 2.92

Data request: Quickly give me recorded protein stability index for `M11L`
Data returned: 3.95

Data request: Quickly give me recorded protein stability index for `D16H`
Data returned: 1.71

Data request: Quickly give me recorded protein stability index for `L19A`
Data returned: 2.25

Data request: Quickly give me recorded protein stability index for `K7E`
Data returned: 2.84

Data request: Quickly give me recorded protein stability index for `N8W`
Data returned: 2.99

Data request: Quickly give me recorded protein stability index for `N13A`
Data returned: 3.6

Data request: Quickly give me recorded protein stability index for `L20D`
Data returned: 2.27

Data request: Quickly give me recorded protein stability index for `S3N`
Data returned: 2.48

Data request: Quickly give me recorded protein stability index for `K7M`
Data returned: 2.73

Data request: Quickly give me recorded protein stability index for `E15P`
Data returned: 1.87

Data request: Quickly give me recorded protein stability index for `E15L`
Data returned: 2.44
